Each recorded value in this set is attributed to patent US10604526B2.

# IC50 values compiled below
System Name: UniProt:P51679
Sequence (P51679 whole entry): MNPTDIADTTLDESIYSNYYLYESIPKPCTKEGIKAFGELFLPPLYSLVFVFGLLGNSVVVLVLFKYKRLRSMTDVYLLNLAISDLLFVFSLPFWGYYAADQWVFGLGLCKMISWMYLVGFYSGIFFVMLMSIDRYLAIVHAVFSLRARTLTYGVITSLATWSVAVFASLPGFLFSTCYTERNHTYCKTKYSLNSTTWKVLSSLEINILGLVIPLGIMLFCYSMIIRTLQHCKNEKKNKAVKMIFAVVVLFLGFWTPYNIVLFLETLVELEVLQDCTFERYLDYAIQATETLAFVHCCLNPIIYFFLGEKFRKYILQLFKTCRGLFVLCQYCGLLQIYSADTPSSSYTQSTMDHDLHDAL
Experiment Summary: Calcium flux assay
Assay Setup: Chem5-hCCR4 cells, CCL22 at EC80 of 1.5 nM, FLIPR Calcium 6 dye; read-out: Potency (IC50)

Quick note, IC50 for CC(C)C(=O)NCCN1CCC[C@H](C2CN(c3cnc4c(C(F)(F)F)nn([C@H](C)c5ccc(Cl)cc5Cl)c4n3)C2)C1 (single isomer, unassigned) [Example 52] landed at < 100 nM

Quick note, IC50 for C[C@H](c1ccc(Cl)cc1Cl)n1nc(C(F)(F)F)c2ncc(N3CC([C@H]4CCCN(CCCS(C)(=O)=O)C4)C3)nc21 (single isomer, unassigned) landed at < 100 nM

Quick note, IC50 for C[C@H](c1ccc(Cl)cc1Cl)n1nc(C#N)c2ncc(N3CC(C4CCCN(CCS(=O)(=O)N5CCOCC5)C4)C3)nc21 (mixture of isomers) landed at 100 to 500 nM

Quick note, IC50 for CC(C)N1CCC[C@H](C2CN(c3cnc4c(C#N)nn([C@H](C)c5ccc(Cl)cc5Cl)c4n3)C2)C1 (single isomer, unassigned) landed at < 100 nM

Quick note, IC50 for C[C@H](O)CN1CCC[C@H](C2CN(c3cnc4c(C(F)(F)F)nn([C@H](C)c5ccc(Cl)cc5Cl)c4n3)C2)C1 landed at < 100 nM
